biological target: Human Leukocyte Elastase (HLE) (Homo sapiens, UniProt P08246)
Sequence (P08246 30-267): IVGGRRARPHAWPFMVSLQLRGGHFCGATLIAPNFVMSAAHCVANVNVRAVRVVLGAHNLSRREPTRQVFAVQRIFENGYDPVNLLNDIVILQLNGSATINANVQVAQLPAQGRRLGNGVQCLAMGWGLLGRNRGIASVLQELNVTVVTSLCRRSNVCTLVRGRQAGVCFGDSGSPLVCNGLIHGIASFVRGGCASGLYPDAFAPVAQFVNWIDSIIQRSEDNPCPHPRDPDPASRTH
ASSAY METRIC: IC50 (µM)
The figure you give is taken to be in µM; do not add the unit.

q: # lookup: Human Leukocyte Elastase (HLE) (Homo sapiens, UniProt P08246) IC50, key = `C[C@H]1[C@H](C)CC[C@]2(C(=O)O)CC[C@]3(C)C(=CC[C@@H]4[C@@]5(C)CC[C@H](O)C(C)(C)[C@@H]5CC[C@]43C)[C@H]12`
a: 30
